quantity: melting point

Look over these answered cases.
{"compound": "Cc1ccc(-c2nn(C(C)(C)C(=O)N(C)C)cc2C)c(C)c1", "quantity": "melting point", "obs_value": "110 to 112 °C"}
{"compound": "CSCCC(=O)Nc1ccc(-n2nc(C(F)(F)F)cc2C(F)(F)F)cc1", "quantity": "melting point", "obs_value": "122 to 123 °C"}
{"compound": "Cc1nc(C)n(-c2cc(C)c3[nH]c(=O)ccc3c2)c1C#N", "quantity": "melting point", "obs_value": "334 to 337 °C"}

[in] Please indicate melting point recorded for CCCCCCNc1nc2nc(N)[nH]c(=O)c2s1
[out] > 320 °C

[in] Please indicate melting point recorded for CCOC(=O)c1cnc2nc(N3CCN(C)CC3)ncc2c1Cl
[out] 173 to 175 °C

[in] Please indicate melting point recorded for CN1Cc2c(Cc3ccc4c(c3)C(=O)NC4=O)ncn2-c2ccsc2C1=O
[out] 245 to 246 °C

[in] Please indicate melting point recorded for CCCCCCCCCC#Cc1ccnc(C(=O)O)c1
[out] 93 to 94 °C

[in] Please indicate melting point recorded for O=CCCOc1ccc(CC2SC(=O)NC2=O)cc1 (configuration not stated)
[out] 48 to 51 °C

[in] Please indicate melting point recorded for Cc1cccnc1CS(N)(=O)=O
[out] 155 to 158 °C

[in] Please indicate melting point recorded for CCCn1c(=O)c2[nH]c(-c3cc(C)n(CC(=O)Nc4ccc(C)cc4)n3)nc2n(CCC)c1=O
[out] > 300 °C

[in] Please indicate melting point recorded for CC1(C)CC(=O)C=C(Nc2ccccc2Cl)C1
[out] 150 to 152 °C

[in] Please indicate melting point recorded for COc1cc(N)c(Cl)cc1C(=O)NCC1CCN(CCCCCNC(=O)c2ccc(C)cc2)CC1
[out] 142 to 146 °C

[in] Please indicate melting point recorded for CCOC(=O)CC(=O)c1ccc(-c2ccccc2)cc1
[out] 75 to 77 °C

[in] Please indicate melting point recorded for Cc1cc(C(=O)O)n(CC(F)(F)F)n1
[out] 135 to 139 °C
